# assay notes: Apparent permeation across Caco-2 cell monolayers
# Format: in vitro ADME, human
# test settings: human, Caco-2; apical buffer pH 7.0, basolateral buffer pH 7.4; test concentration 127 µg/ml
Where a name gives a salt, the structure may show the parent alone.
observed property: Papp at 127 µg/ml

[Q] Indicate the recorded Papp at 127 µg/ml value for this compound: O=C(NCC(F)F)c1ccc(-n2[nH]c3c(nnc4c(F)cccc43)c2=O)cc1 [RhuDex® choline salt]
[A] 0.12 ×10⁻⁶ cm/s

====

# assay notes: Saturation solubility, shake-flask method, quantification by HPLC/UV
# Assay type: physicochemical
# test settings: 50 mM phosphate buffer, 37 °C, pH 7, aqueous buffer, thermodynamic from solid, pH 7.0; read-out: solubility of the drug substance
Where a name gives a salt, the structure may show the parent alone.
observed property: solubility at 24 h

[Q] Indicate the recorded solubility at 24 h value for this compound: O=C(NCC(F)F)c1ccc(-n2[nH]c3c(nnc4c(F)cccc43)c2=O)cc1 [RhuDex® choline salt]
[A] ~1 µg/mL

====

# assay notes: Saturation solubility, shake-flask method, quantification by HPLC/UV
# Type: physicochemical
# test settings: FeSSIF, 37 °C, pH 5, fessif, thermodynamic from solid, FeSSIF, pH 5.0; 24 h at 37°C; read-out: Saturation solubility
Where a name gives a salt, the structure may show the parent alone.
observed property: solubility at 24 h (µg/mL)
Field: numeric (µg/mL). Do not append units.

[Q] Indicate the recorded solubility at 24 h value for this compound: O=C(NCC(F)F)c1ccc(-n2[nH]c3c(nnc4c(F)cccc43)c2=O)cc1 [RhuDex® choline salt]
[A] 0.1

====

# assay notes: Saturation solubility, shake-flask method, quantification by HPLC/UV
# Type: physicochemical
# test settings: FaSSIF, 37 °C, pH 6.5, fassif, thermodynamic from solid, FaSSIF, pH 6.5; 24 h at 37°C; read-out: Saturation solubility
Counter-ions that a name gives are not always drawn.
observed property: solubility at 24 h
The reply should consist of the numeric value with the unit placed after it.

[Q] Indicate the recorded solubility at 24 h value for this molecule: O=C(NCC(F)F)c1ccc(-n2[nH]c3c(nnc4c(F)cccc43)c2=O)cc1 [RhuDex® choline salt]
[A] 1.1 µg/mL

====

# assay notes: Saturation solubility, shake-flask method, quantification by HPLC/UV
# Type: physicochemical
# test settings: 0.01 N HCl, 37 °C, pH 2, simulated gastric fluid, thermodynamic from solid, 0.01 N HCl pH 2; 24 h at 37°C
Structures can show the parent of a compound that is named as a salt.
observed property: solubility at 24 h (µg/mL)
Field: numeric (µg/mL). Do not append units.

[Q] Indicate the recorded solubility at 24 h value for this compound: O=C(NCC(F)F)c1ccc(-n2[nH]c3c(nnc4c(F)cccc43)c2=O)cc1 [RhuDex® choline salt]
[A] 0.1
